System: Male KK-Ay mice
Assay: Body weight gain-suppressing, hypoglycemic and plasma insulin-decreasing action in KK-Ay mouse
Format: in vivo
Conditions: 30 mg/kg/day oral once a day for 2 weeks, KK-Ay mice on high fat diet, relative to body weight gain of solvent control as 100%
Tag: y if measured Body weight gain-suppressing action (30 mg/kg/day) is not below 40%, n if it is.

{"columns": ["COMPOUND", "DISCRETE LABEL"],
 "data": [
  ["Nc1nnc(-c2ccc(Br)cc2)o1 [Example 61]", "n"],
  ["CC(C)(COc1ccc(-c2ccc(-c3nc(COCc4ccccc4)c[nH]3)cn2)cc1)C(=O)O [Example 10]", "n"],
  ["CCOc1nc(-c2ccc(-c3ccc(O[C@H]4CC[C@@H](C(=O)OCC)CC4)nc3)cc2)nn1COCC[Si](C)(C)C [Example 67]", "y"],
  ["NC(=O)c1ccc(Br)cc1F [Example 78]", "y"],
  ["COC(=O)C(C)(C)COc1ccc(-c2ccc(-c3nc(-c4noc(C)n4)cn3COCC[Si](C)(C)C)cn2)cc1 [Example 7]", "n"]
]}
